# Lookup of reported Neutralizing activity IC50 keyed by entry
target.system: cynomolgus monkey EL (cynomolgus monkey)
assay.notes: cell-based or functional assay
Kindly answer with a numeric value in nM, unit omitted.

Look over these answered cases.
13B3 (antibody, mouse IgG2a, V domains shown, mouse IgG2a from hybridoma; also called 13B3 (mouse mAb)) VH: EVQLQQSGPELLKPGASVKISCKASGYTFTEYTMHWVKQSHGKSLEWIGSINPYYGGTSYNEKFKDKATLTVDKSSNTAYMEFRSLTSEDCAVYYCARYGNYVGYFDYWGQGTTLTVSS VL: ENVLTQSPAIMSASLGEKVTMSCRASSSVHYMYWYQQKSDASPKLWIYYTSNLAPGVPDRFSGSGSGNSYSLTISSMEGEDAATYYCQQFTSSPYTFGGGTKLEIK; 3.1
55A1 (antibody, mouse IgG2a, V domains shown, mouse IgG2a from hybridoma; also called 55A1 (mouse mAb)) VH: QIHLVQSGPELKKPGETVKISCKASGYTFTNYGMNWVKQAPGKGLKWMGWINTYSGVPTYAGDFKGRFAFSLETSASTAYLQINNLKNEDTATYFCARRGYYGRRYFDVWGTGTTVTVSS VL: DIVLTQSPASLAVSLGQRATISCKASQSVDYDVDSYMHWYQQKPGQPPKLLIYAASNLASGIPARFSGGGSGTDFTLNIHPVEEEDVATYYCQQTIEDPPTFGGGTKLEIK; 1.3
53A11 (antibody, mouse IgG2a, V domains shown, mouse IgG2a from hybridoma; also called 53A11 (mouse mAb)) VH: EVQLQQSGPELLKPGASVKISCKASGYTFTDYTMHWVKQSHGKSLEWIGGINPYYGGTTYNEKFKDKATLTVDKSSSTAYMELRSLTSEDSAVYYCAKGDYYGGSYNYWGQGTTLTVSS VL: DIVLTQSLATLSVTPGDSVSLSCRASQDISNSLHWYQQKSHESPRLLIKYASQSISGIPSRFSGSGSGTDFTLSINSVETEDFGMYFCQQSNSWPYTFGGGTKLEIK; 2.7

Switching to the query record.
Task: Quick one: give measured Neutralizing activity IC50 for 23H8 (antibody, mouse IgG2a, V domains shown, mouse IgG2a from hybridoma; also called 23H8 (mouse mAb)) VH: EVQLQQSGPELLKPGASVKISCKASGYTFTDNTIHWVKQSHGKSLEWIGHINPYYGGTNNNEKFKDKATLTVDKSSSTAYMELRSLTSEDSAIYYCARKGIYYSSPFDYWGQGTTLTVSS VL: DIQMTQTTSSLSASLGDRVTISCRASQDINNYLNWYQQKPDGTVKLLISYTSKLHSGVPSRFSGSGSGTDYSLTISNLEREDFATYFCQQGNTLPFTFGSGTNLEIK
Output: 1.4
